target: Melanocortin receptor 4 (Mus musculus); assay: Activity at mouse MC4R expressed in HEK293 cells assessed as cAMP accumulation by CRE/beta-galactosidase reporter gene assay; type: functional, cell-based
Sequence (P56450 whole entry): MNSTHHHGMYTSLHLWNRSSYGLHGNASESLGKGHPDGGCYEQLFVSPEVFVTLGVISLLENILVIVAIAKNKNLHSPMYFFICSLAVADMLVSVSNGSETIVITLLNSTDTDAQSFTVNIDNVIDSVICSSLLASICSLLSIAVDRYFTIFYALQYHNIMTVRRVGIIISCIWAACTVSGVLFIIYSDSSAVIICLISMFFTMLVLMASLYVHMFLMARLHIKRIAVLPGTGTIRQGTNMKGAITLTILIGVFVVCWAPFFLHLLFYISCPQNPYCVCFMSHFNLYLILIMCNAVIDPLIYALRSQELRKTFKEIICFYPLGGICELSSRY
Where a SMILES comes first, the peptide text is derived from it. Bridges are numbered along the chain shown (N, C = ends). Triazole bridges read from a SMILES are 1,4-linked. [ ]: non-standard residue; d: D form. Lys(N3) = [N-]=[N+]=NCCCC[C@H](N)C(=O)O; Nle = CCCC[C@H](N)C(=O)O; Pra = C#CC[C@H](N)C(=O)O
Measured EC50 accompanies every entry in the list below.

# COMPOUND, TESTED_SYSTEM, RESULT_UNITS, EC50
records = [
    ("CCCC[C@H](NC(C)=O)C(=O)N[C@H]1CCCCn2cc(nn2)C[C@@H](C(N)=O)NC(=O)[C@H](Cc2c[nH]c3ccccc23)NC(=O)[C@H](CCCNC(=N)N)NC(=O)[C@@H](Cc2ccccc2)NC(=O)[C@H](Cc2cnc[nH]2)NC1=O (Ac-[Nle][Lys(N3)]H[dF]RW[Pra]-NH2; triazole 2-7)", "Melanocortin receptor 4 (Mus musculus)", "pM", 580),
    ("CCCC[C@H](NC(C)=O)C(=O)N[C@H]1CCn2cc(nn2)CCC[C@@H](C(N)=O)NC(=O)[C@H](Cc2c[nH]c3ccccc23)NC(=O)[C@H](CCCNC(=N)N)NC(=O)[C@@H](Cc2ccccc2)NC(=O)[C@H](Cc2cnc[nH]2)NC1=O", "Melanocortin receptor 4 (Mus musculus)", "pM", 48),
    ("CCCC[C@H](NC(C)=O)C(=O)N[C@H]1CCc2cn(nn2)CCC[C@@H](C(N)=O)NC(=O)[C@H](Cc2c[nH]c3ccccc23)NC(=O)[C@H](CCCNC(=N)N)NC(=O)[C@@H](Cc2ccccc2)NC(=O)[C@H](Cc2cnc[nH]2)NC1=O", "Melanocortin receptor 4 (Mus musculus)", "pM", 220),
    ("CCCC[C@H](NC(C)=O)C(=O)N[C@H]1CCn2cc(nn2)CC[C@@H](C(N)=O)NC(=O)[C@H](Cc2c[nH]c3ccccc23)NC(=O)[C@H](CCCNC(=N)N)NC(=O)[C@@H](Cc2ccccc2)NC(=O)[C@H](Cc2cnc[nH]2)NC1=O", "Melanocortin receptor 4 (Mus musculus)", "pM", 67),
]

----------
Measured pEC50 accompanies every entry in the list below.
target: Melanocortin receptor 4 (Mus musculus); test: Activity at mouse MC4R expressed in HEK293 cells assessed as cAMP accumulation by CRE/beta-galactosidase reporter gene assay; type: functional, cell-based
pEC50: −log10 of the molar value.
RESULT_TYPE: pEC50

# SMILES_NOTATION, RECORDED_NUMBER
measured = [
    ("CCCC[C@H](NC(C)=O)C(=O)N[C@H]1CCCc2cn(nn2)CC[C@@H](C(N)=O)NC(=O)[C@H](Cc2c[nH]c3ccccc23)NC(=O)[C@H](CCCNC(=N)N)NC(=O)[C@@H](Cc2ccccc2)NC(=O)[C@H](Cc2cnc[nH]2)NC1=O", 10.29),
    ("CCCC[C@H](NC(C)=O)C(=O)N[C@H]1CCc2cn(nn2)CC[C@@H](C(N)=O)NC(=O)[C@H](Cc2c[nH]c3ccccc23)NC(=O)[C@H](CCCNC(=N)N)NC(=O)[C@@H](Cc2ccccc2)NC(=O)[C@H](Cc2cnc[nH]2)NC1=O", 9.85),
]
